assay-target: T1, cMet-Fc fusion protein (extracellular domain of the cMet receptor expressed as an Fc-fusion protein) (human, UniProt P08581 25-932)
T1 construct: extracellular domain; also called soluble cMet-Fc-fusion protein; soluble cMet receptor; not shown: Fc part
T1 sequence (P08581 25-932): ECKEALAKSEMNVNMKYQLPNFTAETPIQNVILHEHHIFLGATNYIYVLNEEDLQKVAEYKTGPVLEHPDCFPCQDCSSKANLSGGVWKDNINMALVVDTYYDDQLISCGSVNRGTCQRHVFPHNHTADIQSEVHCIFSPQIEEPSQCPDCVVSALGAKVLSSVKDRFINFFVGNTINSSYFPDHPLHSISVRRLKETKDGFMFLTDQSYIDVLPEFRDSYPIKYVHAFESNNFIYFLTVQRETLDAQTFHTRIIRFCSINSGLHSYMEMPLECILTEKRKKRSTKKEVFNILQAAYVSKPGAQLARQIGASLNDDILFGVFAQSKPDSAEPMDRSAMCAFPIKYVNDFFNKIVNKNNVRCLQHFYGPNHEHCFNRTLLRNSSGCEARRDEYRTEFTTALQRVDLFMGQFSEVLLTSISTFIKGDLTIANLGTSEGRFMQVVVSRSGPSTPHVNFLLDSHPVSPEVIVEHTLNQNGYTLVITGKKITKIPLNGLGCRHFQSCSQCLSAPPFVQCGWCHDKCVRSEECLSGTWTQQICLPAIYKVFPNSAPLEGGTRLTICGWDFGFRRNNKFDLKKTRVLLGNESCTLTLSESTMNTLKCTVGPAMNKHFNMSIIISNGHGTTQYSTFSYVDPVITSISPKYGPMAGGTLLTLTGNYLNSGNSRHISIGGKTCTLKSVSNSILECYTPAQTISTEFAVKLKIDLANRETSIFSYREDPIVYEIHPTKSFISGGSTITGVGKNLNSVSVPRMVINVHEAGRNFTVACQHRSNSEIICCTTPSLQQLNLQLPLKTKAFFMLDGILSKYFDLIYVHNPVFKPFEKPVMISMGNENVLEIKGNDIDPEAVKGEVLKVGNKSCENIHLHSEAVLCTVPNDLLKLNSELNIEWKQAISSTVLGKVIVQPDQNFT
method: phage ELISA on cMet-Fc, competitor HGF 500 ng/mL
Protocol: These assays were conducted using the peptide-displaying phage discovered from the initial selection and screening campaigns using the first generation peptide libraries. Briefly, 96-well plates were coated overnight at 4 C with 0.5 μg/mL of cMet-Fc fusion protein or TRAIL-Fc fusion protein (background). […] The plates were incubated for 2 hours at room temperature, washed with PBST and cMet-binding peptide-displaying phage was detected using an HRP-conjugated anti-M13 antibody.
Lab note: compare % of binding in the absence of HGF against 40%. Equal or greater, write TRUE. Smaller, write FALSE.

>>> print(df.to_string())
                                     binder  class_label
0  ADAWMCEYFQWNCGDKGT [458-B05 peptide-displaying phage (SEQ ID NO: 046)]         TRUE
1  AGLLGCWDMPMECTGEGT [465-B11 peptide-displaying phage (SEQ ID NO: 036)]         TRUE
2  GDASMCYDGLALRWDQCWPHDP [531-E11 peptide-displaying phage (SEQ ID NO: 404)]        FALSE
3  AGEIFCVGPPTFTCMWTGT [552-G09 peptide-displaying phage (SEQ ID NO: 096)]         TRUE

Task: Threshold query (% of binding in the absence of HGF >= 40%) on AQVGSPMLPSWFSFEANWSS [95-A11 peptide-displaying phage (SEQ ID NO: 456)]
Output: TRUE

Task: Identify whether the reported % of binding in the absence of HGF of the following binder is 40% or greater: AGVNSCLGPPTFECYQMGT [332-C03 peptide-displaying phage (SEQ ID NO: 076)]
Output: TRUE

Task: Record AGTLSCSEEYKSCQLQGT [465-E09 peptide-displaying phage (SEQ ID NO: 027)] ; criterion: % of binding in the absence of HGF no lower than 40%. Met?
Output: TRUE

Task: Decide: % of binding in the absence of HGF of AGPWKCTGPPTFSCIQFGT [548-D08 peptide-displaying phage (SEQ ID NO: 090)] >= 40%?
Output: TRUE

Task: For this binder, is measured % of binding in the absence of HGF 40% or higher? AGWGWCSGPPMFMCTEYGT [551-A05 peptide-displaying phage (SEQ ID NO: 099)]
Output: TRUE

Task: Is % of binding in the absence of HGF at least 40%? Consider AGQFKCAGPPSFACWMTGT [333-F09 peptide-displaying phage (SEQ ID NO: 050)]
Output: FALSE

Task: Is the recorded value of % of binding in the absence of HGF equal to or greater than 40% for this binder? GDNRFCSWVYNVDDWWCVDNDP [332-H09 peptide-displaying phage (SEQ ID NO: 398)]
Output: TRUE

Task: Would you say AQQWMFQIHQSMAWPYEWIDSY [524-D07 peptide-displaying phage (SEQ ID NO: 494)] shows % of binding in the absence of HGF at minimum 40%?
Output: TRUE

Task: Is % of binding in the absence of HGF for GSTKVCHEKWNQLFCHNQAP [549-G01 peptide-displaying phage (SEQ ID NO: 368)] at or above 40%?
Output: FALSE

Task: Assess whether reported % of binding in the absence of HGF for AGQMWCAEKNSKCYQWGT [465-D12 peptide-displaying phage (SEQ ID NO: 030)] sits at 40% or higher.
Output: FALSE

From: patent US20120039802A1
